- measurement target: Recombinant human his-tagged IGF 1R extracellular domain protein (human) (UniProt P08069)
- assay procedure: SPR, captured antibody, pH 7.4
attribute measured: log10(kon) (log10 of the value in M⁻¹ s⁻¹)
Lab note - kon converted to log10 from values in M⁻¹ s⁻¹.

Using the record for VRDN-03089 (antibody, V domains shown) VH: QVQLVESGGGVVQPGRSLRLSCAASGFTFSSYGMHWVRQAPGKGLEWVAIIWFDGSSTYYADSVRGRFTISRDNSKNTLYLQMNSLRAEDTAVYYCARELGRRYFDLWGRGTLVTVSS VL: EIVLTQSPATLSLSPGERATLSCRASQSVSSSYLAWYQQKPGQAPRLLIYDASKRATGIPARFSGSGSGTDFTLTISSLEPEDFAVYYCQQRSKWPPWTFGQGTKVEIK , report its log10(kon).
4.87

Item under review: VRDN-03110 (antibody, V domains shown) VH: QVQLVESGGGVVQPGRSLRLSCAASGFTFSDYTMHWVRQAPGKGLEWVAIIWFDGSSKYYADSVKGRFTISRDNSKNTLYLQMNSLRAEDTAVYYCARELGRRYFDIWGRGTLVTVSS VL: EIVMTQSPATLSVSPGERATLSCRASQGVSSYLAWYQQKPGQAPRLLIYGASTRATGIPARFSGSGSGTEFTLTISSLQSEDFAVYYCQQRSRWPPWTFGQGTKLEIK . Reported log10(kon)?
4.78

May I ask what log10(kon) has been recorded for VRDN-03126 (antibody, V domains shown) VH: EVQLVESGGGVVQPGRSLRLSCAASGFTFDDYTMHWVRQAPGKGLEWVAVIWYDGSSKYYADSVKGRFTISRDNSKNTLYLQMNSLRAEDTAVYYCARELGRRYFDIWGQGTLVTVSS VL: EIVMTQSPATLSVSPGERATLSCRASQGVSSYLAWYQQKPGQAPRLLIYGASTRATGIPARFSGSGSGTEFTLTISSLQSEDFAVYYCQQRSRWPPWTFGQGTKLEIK ?
5.53

Given the binder VRDN-03103 (antibody, V domains shown) VH: QVQLVESGGGVVQPGRSLRLSCAASGFTFSDYTMHWVRQAPGKGLEWVAIIWFDGSSKYYPGSVKGRFTISRDNSKNTLYLQMNSLRAEDTAVYYCARELGRRYFDIWGRGTLVTVSS VL: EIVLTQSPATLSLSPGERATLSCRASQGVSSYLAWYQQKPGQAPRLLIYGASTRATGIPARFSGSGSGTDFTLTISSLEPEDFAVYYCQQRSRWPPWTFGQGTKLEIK , what is its reported log10(kon)?
5.70

Query (binder): VRDN-03102 (antibody, V domains shown) VH: QVQLVESGGGVVQPGRSLRLSCAASGFTFSDYTMHWVRQAPGKGLEWVAIIWFDGSSKYYVDSVKGRFTISRDNSKNTLYLQMNSLRAEDTAVYYCARELGRRYFDIWGRGTLVTVSS VL: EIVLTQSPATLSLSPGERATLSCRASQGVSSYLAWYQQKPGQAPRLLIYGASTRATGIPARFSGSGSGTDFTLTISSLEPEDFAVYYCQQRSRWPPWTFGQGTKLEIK ; field requested: log10(kon)
4.81

Item under review: VRDN-03128 (antibody, V domains shown) VH: EVQLVESGGGVVQPGRSLRLSCAASGFTFSDYTMHWVRQAPGKGLEWVAIIWFDGSSKYYPGSVKGRFTISRDNSKNTLYLQMNSLRAEDTAVYYCARELGRRYFDIWGRGTLVTVSS VL: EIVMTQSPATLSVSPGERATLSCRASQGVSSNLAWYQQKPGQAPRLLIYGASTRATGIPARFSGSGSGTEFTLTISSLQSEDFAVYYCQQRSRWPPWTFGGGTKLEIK . Reported log10(kon)?
5.52

# query: log10(kon) of entry VRDN-03134 (antibody, V domains shown) VH: EVQLVESGGGVVQPGRSLRLSCAASGFTFSSYSMHWVRQAPGKGLEWVAVIWYDGSSKYYADSVKSRFTISRDNSKNTLYLQMNSLRAEDTAVYYCARELGRRYFDIWGQGTLVTVSS VL: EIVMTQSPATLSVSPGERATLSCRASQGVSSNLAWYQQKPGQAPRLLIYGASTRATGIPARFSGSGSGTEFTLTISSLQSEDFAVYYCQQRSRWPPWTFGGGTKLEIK
5.39

Which value of log10(kon) has been reported for VRDN-03139 (antibody, V domains shown) VH: EVQLVESGGGVVQPGRSLRLSCAASGFTFSDYTMHWVRQAPGKGLEWVAIIWFDGSSKYYADSVKSRFTISRDNSKNTLYLQMNSLRAEDTAVYYCARELGRRYFDIWGQGTLVTVSS VL: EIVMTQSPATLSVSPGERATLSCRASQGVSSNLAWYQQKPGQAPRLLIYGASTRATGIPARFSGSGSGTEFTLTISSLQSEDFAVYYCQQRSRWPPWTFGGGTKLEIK in the records?
5.03

Any idea what log10(kon) was measured for VRDN-03049 (antibody, V domains shown) VH: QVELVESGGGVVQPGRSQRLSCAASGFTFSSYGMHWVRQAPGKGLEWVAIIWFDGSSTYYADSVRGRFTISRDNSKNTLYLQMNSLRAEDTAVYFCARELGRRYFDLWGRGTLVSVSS VL: EIVLTQSPATLSLSPGERATLSCRASQSVSSYLAWYQQKPGQAPRLLIYHASKRATGIPARFSGSGSGTDFTLTISSLEPEDFAVYYCQQRSKWPPWTFGQGTKVESK ?
5.07

Using the record for VRDN-03114 (antibody, V domains shown) VH: QVQLVESGGGVVQPGRSLRLSCAASGFTFSDHYMDWVRQAPGKGLEWVAIIWFDGSSKYYVDSVKGRFTISRDNSKNTLYLQMNSLRAEDTAVYYCARELGRRYFDIWGRGTLVTVSS VL: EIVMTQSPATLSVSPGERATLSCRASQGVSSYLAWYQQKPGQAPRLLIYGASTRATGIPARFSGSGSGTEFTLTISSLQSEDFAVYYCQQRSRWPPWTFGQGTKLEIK , report its log10(kon).
4.47
